- subject of test: human Fc (human)
- assay details: ELISA, negative control
Recorded optical density values for a group of binders are listed next.
Respond numerically; units are OD and should not be typed.

# binder, optical density [OD]
rows = [
    ("369_A07 (antibody, V domains shown) VH: EVQLLESGGGLVQPGGSLRLSCAASGFTFSSYSMNWVRQAPGKGLEWVAGINYNGGYKGYADSVKGRFTISRDNSKNTLYLQMNSLRAEDTAVYYCARGANWHDTALDYWGQGTLVTVSS VL: DIQMTQSPSSLSASVGDRVTITCRASQSILSYLNWYQQKPGKAPKLVIYAATSRASGVPSRFSGSGSGTDFTLTISSLQPEDFATYYCQQSYESPLTFGGGTKVEIK", 0.288),
]

Now consider a different binder.
Enquiry: Quote optical density reported for 371_G02 (antibody, V domains shown) VH: EVQLLESGGGLVQPGGSLRLSCAASGFTFDSYGMNWVRQAPGKGLEWVASINYNGGYTSYADSVKGRFTISRDNSKNTLYLQMNSLRAEDTAVYYCARGANWHDTHLDYWGQGTLVTVSS VL: DIQMTQSPSSLSASVGDRVTITCRASQSILSYLNWYQQKPGKAPKLLIYAATSRASGVPSRFSGSGSGTDFTLTISSLQPEDFATYYCQQSYDLPLTFGGGTKVEIK please.
Return: 0.514
